remaining at 2 h, 1 µM overview
- Tested on: Pancreatin
- Test method notes: Protease stability in simulated intestinal fluid (Pancreatin-SIF, FaSSIF)
- Assay type: in vitro ADME
- Assay conditions: 120 min, 1 μM peptide, 37° C., read-out: FaSSIF 120 (min), remaining percent of peptide
Starred links: 1 amine or outer side, 2 acyl side, 3 side chain; linkers in the order of their positions; H or OH if unused. Positions of bridges follow the written chain, without caps; N, C: chain ends. Non-standard residues stand in square brackets, D forms with d. Residues, ends and D or L forms follow the SMILES beside them. *: point of attachment. X1 = O=C(CCCCN[*:3])N[C@@H](CS[*:2])C(=O)[*:1]; 2Nal = N[C@@H](Cc1ccc2ccccc2c1)C(=O)O; αMeL = CC(C)C[C@](C)(N)C(=O)O; Thp = NC1(C(=O)O)CCOCC1; Me2NCH2CH2 = CN(C)CC*
Numeric answer only, unit % assumed.

Compound: CC(=O)N[C@H]1CCCCNC(=O)[C@@H]2CSSC[C@H](NC(=O)[C@H](CCC(N)=O)NC(=O)[C@H](Cc3c[nH]c4ccccc34)NC1=O)C(=O)N[C@@H](Cc1ccc(OCCN(C)C)cc1)C(=O)N[C@@H](Cc1ccc3ccccc3c1)C(=O)N[C@@](C)(CC(C)C)C(=O)N[C@H](C(=O)N[C@@H](CC(N)=O)C(=O)N[C@@H](CC(N)=O)C(N)=O)CCC(=O)NCCCCC(=O)N2 [compound 28] (Ac-KWQCY(Me2NCH2CH2)[2Nal][αMeL]ENN-NH2; linker 1-4-8 via X1)
remaining at 2 h, 1 µM, %: 68

Next item in the queue.
[ask] Notebook entry, Pancreatin assay: remaining at 2 h, 1 µM of CC(=O)N[C@H]1CCCCNC(=O)[C@@H]2CSSC[C@H](NC(=O)[C@H](CCC(N)=O)NC(=O)[C@H](Cc3c[nH]c4ccccc34)NC1=O)C(=O)N[C@@H](Cc1ccc(OCCN(C)C)cc1)C(=O)N[C@@H](Cc1ccc3ccccc3c1)C(=O)NC1(CCOCC1)C(=O)N[C@H](C(=O)N[C@@H](CC(N)=O)C(=O)NCC(N)=O)CCC(=O)NCCCCC(=O)N2 [compound 30] (Ac-KWQCY(Me2NCH2CH2)[2Nal][Thp]ENG-NH2; linker 1-4-8 via X1) = ?
[reply] 92

====

- System: Pepsin
- Construct: purchased Merck Millipore
- Test method notes: Protease stability in simulated gastric fluid (Pepsin-SGF, FaSSGF)
- Type: in vitro ADME
- Assay conditions: simulated gastric fluid with pepsin (Pepsin-SGF), 60 min, 1 μM peptide, 37° C., read-out: FaSSGF 60 (min), remaining percent of peptide
Starred links: 1 amine or outer side, 2 acyl side, 3 side chain; linkers in the order of their positions; H or OH if unused. Positions of bridges follow the written chain, without caps; N, C: chain ends. Non-standard residues stand in square brackets, D forms with d. Residues, ends and D or L forms follow the SMILES beside them. *: point of attachment. X6 = O=C(CCC(=O)[*:3])N[C@@H](CS[*:2])C(=O)[*:1]; Trp(7-Me) = Cc1cccc2c(C[C@H](N)C(=O)O)c[nH]c12; X1 = O=C(CCCCN[*:3])N[C@@H](CS[*:2])C(=O)[*:1]; 2Nal = N[C@@H](Cc1ccc2ccccc2c1)C(=O)O; 3Pal = N[C@@H](Cc1cccnc1)C(=O)O; Lys(Me) = CNCCCC[C@H](N)C(=O)O; NMeN = CN[C@@H](CC(N)=O)C(=O)O; αMeL = CC(C)C[C@](C)(N)C(=O)O; Me2NCH2CH2 = CN(C)CC*; Aib = CC(C)(N)C(=O)O; Ahx = NCCCCCC(=O)O; Ava = NCCCCC(=O)O; Sar = CNCC(=O)O
Each item that follows carries a reported remaining at 1 h, 1 µM.
// return numeric value only (unit: %, not printed)

Compound: CC(=O)NCCCC[C@@H]1NC(=O)[C@H](Cc2c[nH]c3c(C)cccc23)NC(=O)[C@H]([C@@H](C)O)NC(=O)[C@H](CC(N)=O)NC(=O)[C@@H]2CSSC[C@H](NC1=O)C(=O)N[C@@H](Cc1ccc(OCCN(C)C)cc1)C(=O)N[C@H](Cc1ccc3ccccc3c1)C(=O)NC1(CCOCC1)C(=O)N[C@H](C(=O)N[C@@H](CC(N)=O)C(=O)N[C@@H](Cc1cccnc1)C(=O)N(C)CC(N)=O)CCC(=O)NCCCCC(=O)N2
Experimental system: Pepsin
Units text: %
Measured value: 92
--
Compound: CC(=O)N[C@H]1CCCCNC(=O)[C@@H]2CSSC[C@H](NC(=O)[C@H](CCC(N)=O)NC(=O)[C@H](Cc3c[nH]c4ccccc34)NC1=O)C(=O)N[C@@H](Cc1ccc(OCCN(C)C)cc1)C(=O)N[C@@H](Cc1ccc3ccccc3c1)C(=O)N[C@@](C)(CC(C)C)C(=O)N[C@H](C(=O)N[C@@H](CC(N)=O)C(=O)N[C@@H](CC(N)=O)C(N)=O)CCC(=O)NCCCCC(=O)N2 [compound 28] (Ac-KWQCY(Me2NCH2CH2)[2Nal][αMeL]ENN-NH2; linker 1-4-8 via X1)
Experimental system: Pepsin
Units text: %
Measured value: 83
--
Compound: COc1ccc(C[C@@H]2NC(=O)[C@@H]3CSSC[C@H](NC(=O)CCCCCNC(=O)C[C@@H](C(=O)N[C@@H](CC(N)=O)C(=O)N[C@@H](CC(N)=O)C(N)=O)NC(=O)C(C)(C)NC(=O)[C@H](Cc4ccc5ccccc5c4)NC2=O)C(=O)N(C)[C@@H](CC(N)=O)C(=O)N[C@@H]([C@@H](C)O)C(=O)N[C@@H](Cc2c[nH]c4ccccc24)C(=O)N[C@@H](CCC(N)=O)C(=O)N3)cc1 [compound 6] ([Ahx]C[NMeN]TWQCY(Me)[2Nal][Aib]DNN-NH2; disulfide 2-7; lactam N-11)
Experimental system: Pepsin
Units text: %
Measured value: 1

[ask] Which remaining at 1 h, 1 µM is reported for this compound? "C[C@@H](O)[C@@H]1NC(=O)[C@H](CC(N)=O)NC(=O)[C@@H]2CSSC[C@H](NC(=O)[C@H](CCC(N)=O)NC(=O)[C@H](Cc3c[nH]c4ccccc34)NC1=O)C(=O)N[C@@H](Cc1ccc(OCCN)cc1)C(=O)N[C@H](Cc1ccc3ccccc3c1)C(=O)NC(C)(C)C(=O)N[C@H](C(=O)N[C@@H](CC(N)=O)C(=O)N[C@@H](CC(N)=O)C(N)=O)CCC(=O)NCCCCC(=O)N2"
[reply] 82

[ask] Field entry: COc1ccc(C[C@@H]2NC(=O)[C@@H]3CSSC[C@H](NC(=O)CCCCNC(=O)CC[C@@H](C(=O)N[C@@H](CC(N)=O)C(=O)N[C@@H](CC(N)=O)C(N)=O)NC(=O)C(C)(C)NC(=O)[C@H](Cc4ccc5ccccc5c4)NC2=O)C(=O)N[C@@H](CC(N)=O)C(=O)N[C@@H]([C@@H](C)O)C(=O)N[C@@H](Cc2c[nH]c4ccccc24)C(=O)N[C@@H](CCC(N)=O)C(=O)N3)cc1 [compound 1] ([Ava]CNTWQCY(Me)[2Nal][Aib]ENN-NH2; disulfide 2-7; lactam N-11)
[reply] 2

[ask] Entry to check: CC(=O)N[C@H]1CCCCNC(=O)[C@@H]2CSSC[C@H](NC(=O)[C@H](CC(C)C)NC(=O)[C@H](Cc3c[nH]c4c(C)cccc34)NC1=O)C(=O)N[C@@H](Cc1ccc(OCCN(C)C)cc1)C(=O)N[C@@H](Cc1ccc3ccccc3c1)C(=O)N[C@@](C)(CC(C)C)C(=O)N[C@H](C(=O)N[C@@H](CC(N)=O)C(=O)N[C@@H](Cc1cccnc1)C(=O)N(C)CC(N)=O)CCCCN(C)C(=O)CCC(=O)N2 [compound 68] (Ac-K[Trp(7-Me)]LCY(Me2NCH2CH2)[2Nal][αMeL][Lys(Me)]N[3Pal][Sar]-NH2; linker 1-4-8 via X6)
[reply] 39
